Numbers sourced from patent US20190309059A1.

- TESTED ON: his-labeled human IL-13 (immunogen A) (human) (UniProt P35225)
- RUN DESCRIPTION: FACS blocking, biotin-IL-13 on IL-13Ra1/IL-4Ra HEK293 cells; antibody at 0.05 nM
Threshold rule: mean fluorescence intensity greater than or equal to 70 is True; below that, False.

{"columns": ["BINDER", "CLASS NAME"],
 "data": [
  ["c29D9H8 (mouse-human chimeric IL-13 antibody) (antibody, V domains shown) VH: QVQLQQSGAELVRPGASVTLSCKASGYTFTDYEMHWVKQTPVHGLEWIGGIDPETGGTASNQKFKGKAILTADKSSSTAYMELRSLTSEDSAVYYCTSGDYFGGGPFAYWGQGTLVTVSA VL: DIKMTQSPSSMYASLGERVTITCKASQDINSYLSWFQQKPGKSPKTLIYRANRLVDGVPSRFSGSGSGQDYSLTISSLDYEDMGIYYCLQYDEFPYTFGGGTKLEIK", "True"],
  ["c70F10A10 (mouse-human chimeric IL-13 antibody) (antibody, V domains shown) VH: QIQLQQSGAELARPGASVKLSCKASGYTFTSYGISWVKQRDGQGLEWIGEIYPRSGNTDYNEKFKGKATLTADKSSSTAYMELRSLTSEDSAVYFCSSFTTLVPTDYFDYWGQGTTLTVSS VL: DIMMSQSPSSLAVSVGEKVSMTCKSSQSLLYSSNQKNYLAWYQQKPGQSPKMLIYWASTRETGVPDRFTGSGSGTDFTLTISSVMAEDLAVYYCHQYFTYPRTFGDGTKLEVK", "True"],
  ["70F10A10 (lead antibody, mouse hybridoma) (antibody, V domains shown) VH: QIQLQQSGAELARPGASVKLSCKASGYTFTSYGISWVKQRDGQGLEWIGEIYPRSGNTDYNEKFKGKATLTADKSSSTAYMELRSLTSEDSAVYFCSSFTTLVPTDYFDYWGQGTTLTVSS VL: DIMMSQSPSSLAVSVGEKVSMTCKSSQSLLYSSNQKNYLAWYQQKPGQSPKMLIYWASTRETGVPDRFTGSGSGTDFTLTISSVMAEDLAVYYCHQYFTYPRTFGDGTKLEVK", "False"],
  ["c28A2E11 (mouse-human chimeric IL-13 antibody) (antibody, V domains shown) VH: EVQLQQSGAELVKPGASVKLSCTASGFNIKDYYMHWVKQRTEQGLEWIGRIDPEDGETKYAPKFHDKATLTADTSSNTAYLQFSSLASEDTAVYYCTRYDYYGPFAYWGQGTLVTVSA VL: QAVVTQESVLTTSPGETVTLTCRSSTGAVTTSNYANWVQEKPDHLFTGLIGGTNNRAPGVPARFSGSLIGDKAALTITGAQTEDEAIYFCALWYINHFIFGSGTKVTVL", "True"],
  ["c35E2C3 (mouse-human chimeric IL-13 antibody) (antibody, V domains shown) VH: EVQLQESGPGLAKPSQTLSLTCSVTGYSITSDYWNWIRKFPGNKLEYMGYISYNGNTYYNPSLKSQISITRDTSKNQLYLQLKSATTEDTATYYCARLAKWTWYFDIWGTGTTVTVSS VL: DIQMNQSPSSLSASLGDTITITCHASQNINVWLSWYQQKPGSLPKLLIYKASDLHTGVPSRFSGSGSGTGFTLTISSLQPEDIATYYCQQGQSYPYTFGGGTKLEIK", "True"]
]}
